Values from patent US20110294738A1

- target-or-system: PTHR1 receptor
- Sequence (P25961 whole entry): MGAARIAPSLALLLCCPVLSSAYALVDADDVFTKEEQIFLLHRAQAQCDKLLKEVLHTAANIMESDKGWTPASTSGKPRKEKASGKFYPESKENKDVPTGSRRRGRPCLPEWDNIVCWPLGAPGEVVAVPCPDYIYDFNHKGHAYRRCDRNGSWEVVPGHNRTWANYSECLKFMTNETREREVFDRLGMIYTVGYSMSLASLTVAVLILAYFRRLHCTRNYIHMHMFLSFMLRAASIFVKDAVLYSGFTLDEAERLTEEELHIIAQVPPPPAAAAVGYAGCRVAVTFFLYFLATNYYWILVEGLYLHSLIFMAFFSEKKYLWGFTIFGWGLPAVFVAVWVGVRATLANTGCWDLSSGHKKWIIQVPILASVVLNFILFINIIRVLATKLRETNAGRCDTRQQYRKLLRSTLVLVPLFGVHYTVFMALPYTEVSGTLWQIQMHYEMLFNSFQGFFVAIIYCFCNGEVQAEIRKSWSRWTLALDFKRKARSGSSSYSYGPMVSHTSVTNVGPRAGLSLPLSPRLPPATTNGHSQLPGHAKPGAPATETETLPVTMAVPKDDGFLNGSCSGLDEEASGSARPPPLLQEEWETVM
* marks the point of attachment. Palmitoyl = CCCCCCCCCCCCCCCC(=O)*
readout: Inhibition of Maximal Response (%)
Dear colleague, please return just the value in %, with no unit written.

According to the records, this binder Palmitoyl-LAYFRRLHSTR-NH2 (SMILES CCCCCCCCCCCCCCCC(=O)N[C@@H](CC(C)C)C(=O)N[C@@H](C)C(=O)N[C@@H](Cc1ccc(O)cc1)C(=O)N[C@@H](Cc1ccccc1)C(=O)N[C@@H](CCCNC(=N)N)C(=O)N[C@@H](CCCNC(=N)N)C(=O)N[C@@H](CC(C)C)C(=O)N[C@@H](Cc1c[nH]cn1)C(=O)N[C@@H](CO)C(=O)N[C@H](C(=O)N[C@@H](CCCNC(=N)N)C(N)=O)[C@@H](C)O) [Compound 4] displays Inhibition of Maximal Response of -74.2

Lookup result for Palmitoyl-NGEVQAEIKKSWSR-NH2 (SMILES CCCCCCCCCCCCCCCC(=O)N[C@@H](CC(N)=O)C(=O)NCC(=O)N[C@@H](CCC(=O)O)C(=O)N[C@H](C(=O)N[C@@H](CCC(N)=O)C(=O)N[C@@H](C)C(=O)N[C@@H](CCC(=O)O)C(=O)N[C@H](C(=O)N[C@@H](CCCCN)C(=O)N[C@@H](CCCCN)C(=O)N[C@@H](CO)C(=O)N[C@@H](Cc1c[nH]c2ccccc12)C(=O)N[C@@H](CO)C(=O)N[C@@H](CCCNC(=N)N)C(N)=O)[C@@H](C)CC)C(C)C) [Compound 100] ; measured Inhibition of Maximal Response: 26.8

Query Palmitoyl-TNAGRSDARQQYRKLL-NH2 (SMILES CCCCCCCCCCCCCCCC(=O)N[C@H](C(=O)N[C@@H](CC(N)=O)C(=O)N[C@@H](C)C(=O)NCC(=O)N[C@@H](CCCNC(=N)N)C(=O)N[C@@H](CO)C(=O)N[C@@H](CC(=O)O)C(=O)N[C@@H](C)C(=O)N[C@@H](CCCNC(=N)N)C(=O)N[C@@H](CCC(N)=O)C(=O)N[C@@H](CCC(N)=O)C(=O)N[C@@H](Cc1ccc(O)cc1)C(=O)N[C@@H](CCCNC(=N)N)C(=O)N[C@@H](CCCCN)C(=O)N[C@@H](CC(C)C)C(=O)N[C@@H](CC(C)C)C(N)=O)[C@@H](C)O) [Compound 79] yields Inhibition of Maximal Response of 1.2

Inhibition of Maximal Response for Palmitoyl-GSEKKYLWG-NH2 (SMILES CCCCCCCCCCCCCCCC(=O)NCC(=O)N[C@@H](CO)C(=O)N[C@@H](CCC(=O)O)C(=O)N[C@@H](CCCCN)C(=O)N[C@@H](CCCCN)C(=O)N[C@@H](Cc1ccc(O)cc1)C(=O)N[C@@H](CC(C)C)C(=O)N[C@@H](Cc1c[nH]c2ccccc12)C(=O)NCC(N)=O) [Compound 43] is 5.7
